# study_system: PARP-1 enzyme (Homo sapiens)
# Construct: made in house
# Sequence (P09874 whole entry): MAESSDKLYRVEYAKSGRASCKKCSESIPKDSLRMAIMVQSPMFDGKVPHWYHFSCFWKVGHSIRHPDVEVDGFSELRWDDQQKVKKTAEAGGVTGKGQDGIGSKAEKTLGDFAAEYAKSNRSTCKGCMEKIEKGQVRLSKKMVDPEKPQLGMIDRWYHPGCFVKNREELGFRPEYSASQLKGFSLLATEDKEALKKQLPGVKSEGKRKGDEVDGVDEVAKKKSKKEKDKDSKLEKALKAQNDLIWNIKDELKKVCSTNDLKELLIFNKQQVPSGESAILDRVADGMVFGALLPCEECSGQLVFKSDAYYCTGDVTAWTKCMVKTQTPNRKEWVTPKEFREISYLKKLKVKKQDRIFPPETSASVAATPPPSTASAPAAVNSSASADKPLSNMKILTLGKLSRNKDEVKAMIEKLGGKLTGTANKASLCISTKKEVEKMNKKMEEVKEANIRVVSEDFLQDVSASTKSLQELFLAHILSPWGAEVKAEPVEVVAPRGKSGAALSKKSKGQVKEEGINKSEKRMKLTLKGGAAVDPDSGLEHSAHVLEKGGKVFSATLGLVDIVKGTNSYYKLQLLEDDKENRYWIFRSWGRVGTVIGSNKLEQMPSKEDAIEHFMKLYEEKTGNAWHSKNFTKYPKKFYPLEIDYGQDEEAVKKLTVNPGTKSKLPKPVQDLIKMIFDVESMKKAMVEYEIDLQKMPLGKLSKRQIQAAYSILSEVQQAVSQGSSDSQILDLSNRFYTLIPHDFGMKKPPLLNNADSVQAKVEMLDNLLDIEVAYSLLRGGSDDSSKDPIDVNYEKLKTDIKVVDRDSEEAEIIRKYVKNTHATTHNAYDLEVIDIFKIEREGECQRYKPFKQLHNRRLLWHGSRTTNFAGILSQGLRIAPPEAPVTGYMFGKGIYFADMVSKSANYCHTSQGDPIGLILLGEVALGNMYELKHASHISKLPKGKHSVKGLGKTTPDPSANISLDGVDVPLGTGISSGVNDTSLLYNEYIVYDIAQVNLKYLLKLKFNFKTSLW
# experimental_protocol: In vitro Scintillation Proximity Assay (SPA) for PARP-1 inhibitory activity
# Type: biochemical
# condition: nicked DNA activated PARP-1, [3H]-NAD+, biotinylated histones; read-out: In vitro SPA pIC50 (converted)
Can you tell me IC50 for the items I'm about to list?
Give a bare numeral; the unit nM is implied.

Dear colleague, I am looking for the recorded IC50 of the following compound: CCc1cc2cc(C(c3cc(C(F)(F)F)ccc3Cl)N3CCC(NCCOC)CC3)ccc2[nH]c1=O (stereo not drawn) [Compound 69] 456

Any idea what its IC50 is? The compound is CCc1nc2cc(C(c3ccc(Cl)cc3)n3cnc(C)c3)ccc2[nH]c1=O (stereo not drawn) [Compound 122] 877

I have this compound here, CCc1cc2cc(C(NC=O)c3ccc4c(c3)OCCO4)ccc2[nH]c1=O (stereo not drawn) [Compound 18] , and I need its recorded IC50. 19.5

Query: IC50; subject: CCc1nc2cc(C(c3ccccc3)N3CCC(=O)CC3)ccc2[nH]c1=O (stereo not drawn) [Compound 84] 318

Query (compound): Cc1cc2cc(CCC(NC=O)c3ccccc3)ccc2[nH]c1=O (stereo not drawn) [Compound 103] ; field requested: IC50 902

Quick one: IC50 of CCc1cc2cc(C(c3ccc(Cl)cc3)N3CCC(NCCOC)CC3)ccc2[nH]c1=O (stereo not drawn) [Compound 86] ? 292

Recorded IC50 for CCc1cc2cc(C(c3ccccc3)N3CCC(NCCOC)CC3)ccc2[nH]c1=O (stereo not drawn) [Compound 13] , please? 220

I'd like to know its IC50. The compound in question is CCc1cc2cc(C(OCCN(C)C)c3ccc4c(c3)OCCO4)ccc2[nH]c1=O (stereo not drawn) [Compound 55] 18.4

Query: IC50; subject: CCc1cc2cc(/C(=C/CN(C)C)c3ccccc3)ccc2[nH]c1=O [Compound 139] 668

IC50 lookup needed for CCc1nc2cc(C(c3cccc(F)c3)n3ccnc3)ccc2[nH]c1=O (stereo not drawn) [Compound 115] , thanks. 818

Entry CCc1nc2cc(C(c3ccc(Cl)cc3)n3ccnc3)ccc2[nH]c1=O (stereo not drawn) [Compound 126] has what IC50? 573

Which IC50 value is on record for CCc1cc2cc(C(c3cccc(C(F)(F)F)c3)N3CCN(C)CC3)ccc2[nH]c1=O (stereo not drawn) [Compound 80] ? 692

I am curious: what IC50 value has been reported for CCc1nc2cc(C(c3ccccc3)N3CCC(NCCOC)CC3)ccc2[nH]c1=O (stereo not drawn) [Compound 58] ? 582

Consider the compound Cc1cc2cc(C(c3cccc(Cl)c3)n3ccnc3)ccc2[nH]c1=O (stereo not drawn) [Compound 94] and give its measured IC50. 665

Looking for the measured IC50 of CNC(c1ccccc1)c1ccc2[nH]c(=O)c(C)cc2c1 (stereo not drawn) [Compound 1] , can you help? 285

Would you mind telling me what IC50 value was observed for CCc1cc2cc(C(c3ccc(C)cc3C)N3CCC(NCCOC)CC3)ccc2[nH]c1=O (stereo not drawn) [Compound 64] ? 532

Endpoint output: IC50 of CCc1cc2cc(C(c3cccc(Cl)c3)N3CCN(C)CC3)ccc2[nH]c1=O (stereo not drawn) [Compound 75] . Value? 339

# input compound: Cc1cc2cc(C(c3ccccc3)c3cncn3C)ccc2[nH]c1=O (stereo not drawn) [Compound 10] ; wanted: its IC50 711
